Test system: E. cloacae β19
assay_notes: In vitro antibacterial activity test (broth microdilution)
Type: cell-based
measurement_parameters: Enterobacter cloacae, read-out: MIC90
Overview of recorded MIC90 for various compounds
property_label: MIC90 (µg/mL)

1. C[C@H](O/N=C(\C(=O)N[C@@H]1C(=O)N2C(C(=O)[O-])=C(C[n+]3cnc(N)c(NCCNC(=O)c4cc(=O)c(O)cn4O)c3)CSC12)c1nc(N)sc1Cl)C(=O)O (stereo partly shown) :: 1
2. C[C@H](O/N=C(\C(=O)N[C@@H]1C(=O)N2C(C(=O)[O-])=C(C[n+]3cnc(N)c(NCCNC(=O)c4ccc(O)c(O)c4)c3)CSC12)c1csc(N)n1)C(=O)O (stereo partly shown) :: 16
3. C[C@H](O/N=C(\C(=O)N[C@@H]1C(=O)N2C(C(=O)[O-])=C(C[n+]3cnc(N)c(NCCNC(=O)c4ccc(O)c(O)c4)c3)CSC12)c1nc(N)sc1Cl)C(=O)O (stereo partly shown) :: 0.5
4. CC(C)(O/N=C(\C(=O)N[C@@H]1C(=O)N2C(C(=O)[O-])=C(/C=C/C[n+]3cnc(N)c(NCCNC(=O)c4cc(=O)c(O)cn4O)c3)CSC12)c1nsc(N)n1)C(=O)O (stereo partly shown) :: 1
5. CC(C)(O/N=C(\C(=O)N[C@@H]1C(=O)N2C(C(=O)[O-])=C(C[n+]3cnc(N)c(NCCNC(=O)c4cc(=O)c(O)cn4O)c3)CSC12)c1nc(N)sc1Cl)C(=O)O (stereo partly shown) :: 32
6. CC(C)(O/N=C(\C(=O)N[C@@H]1C(=O)N2C(C(=O)[O-])=C(/C=C/C[n+]3cnc(N)c(NC(=O)CCNC(=O)c4cc(=O)c(O)cn4O)c3)CSC12)c1csc(N)n1)C(=O)O (stereo partly shown) :: 4
7. CC(C)(O/N=C(\C(=O)N[C@@H]1C(=O)N2C(C(=O)[O-])=C(/C=C/C[n+]3cnc(N)c(NCCCCNC(=O)c4cc(=O)c(O)cn4O)c3)CSC12)c1csc(N)n1)C(=O)O (stereo partly shown) :: 2
8. CC(C)(O/N=C(\C(=O)N[C@@H]1C(=O)N2C(C(=O)[O-])=C(C[n+]3cnc(N)c(NC(=O)CNC(=O)c4ccc(O)c(O)c4)c3)CSC12)c1csc(N)n1)C(=O)O (stereo partly shown) :: 128
9. C[C@H](O/N=C(\C(=O)N[C@@H]1C(=O)N2C(C(=O)[O-])=C(/C=C/C[n+]3cnc(N)c(NCCNC(=O)c4cc(=O)c(O)cn4O)c3)CSC12)c1csc(N)n1)C(=O)O (stereo partly shown) :: 2
